Target: Gag-Pol polyprotein (Human immunodeficiency virus type 1 group M subtype B (isolate HXB2))
Assay: HIV-1 RT RNase H inhibitors, primary screen, biochemical, fluorescence (AID 565)
Details: RT-RNase H RNA/DNA duplex cleavage, at 10 µM
Out of some 65,000 compounds screened, about 1,200 (1.8%) were called active. Cut-off read from the data, not from the text of the source: active = inhibition above about 50%; inactive = the rest. The sample as a whole holds a higher share of actives than the screen did.
Outcomes you can answer with include only these: 1 (active), 0 (inactive)

Q: Each molecule tested received a call. Report the one for CC(=O)Oc1cccc(N2C(=O)CC(Nc3ccc(N4CCOCC4)cc3)C2=O)c1 (centres undefined) .
A: 0

Q: Each molecule tested received a call. Report the one for Cc1ccc(-n2nc(-c3ccco3)cc2C(=O)NCc2cccnc2)cc1 .
A: 1

Q: Record lookup: outcome of this test for CC(C)(C)c1cc(C(=O)NCc2cccnc2)ccn1 ?
A: 0

Q: State the result this test recorded for Cc1cc(C)nc(NC2=NCC(=O)N2c2ccc(Cl)cc2)n1 .
A: 0
